Attribution: paper PMC9007139

Assay: in vitro
Details: rat, microsomes, pH 7.4
assay.endpoint: CLint scaled at 1 uM (mL/min/kg)

molecule	measured.result
CNC(=O)c1cn(C[C@H](F)CCc2ccc(NC(=O)Cc3cc(-c4cccc(OC(F)(F)F)c4)ccn3)nn2)nn1	22

---

Test: In vivo pharmacokinetics, dog
Set-up: species or system Male beagle dogs
Details: male, beagle, plasma, iv, 0.3 mg/kg
Each entry below carries its recorded clearance.
assay.endpoint: clearance

molecule	assay.endpoint	measured.result
CNC(=O)c1cn(C[C@H](F)CCc2ccc(NC(=O)Cc3cc(OC4CC(F)(F)C4)cc(C)n3)nn2)nn1	clearance	0.6 mL/min/kg
CNC(=O)c1cn(C[C@H](F)CCc2ccc(NC(=O)Cc3cc(C(F)(F)F)cc(C)n3)nn2)nn1	clearance	0.9 mL/min/kg
CNC(=O)c1cn(C[C@H](F)CCc2ccc(NC(=O)Cc3cc(OC4CC(F)(F)C4)ccn3)nn2)nn1	clearance	3 mL/min/kg
CNC(=O)c1cn(C[C@H](F)CCc2ccc(NC(=O)Cc3cc(-c4cccc(OC(F)(F)F)c4)ccn3)nn2)nn1	clearance	2.9 mL/min/kg
